target: equine FcRn (large alpha subunit p51) / equine beta-2-microglobulin complex, biotinylated (equine) (UniProt P30441); experiment: SPR (Biacore), pH 6
endpointLabel: Kd (µM)
Your answer is read as µM, so omit the unit and give the number.

[Q] Please report the recorded Kd for equine IgG4 Y436Q (antibody, part only; not given: variable domains, not shown: another chain or arm of the molecule) constant: ASTTAPKVFPLASHSAATSGSTVALGCLVSSYFPEPVTVSWNSGALTSGVHTFPSVLQSSGLYSLSSMVTVPASSLKSQTYICNVAHPASSTKVDKKIVIKECNGGCPAECLQVGPSVFIFPPKPKDVLMISRTPTVTCVVVDVGHDFPDVQFNWYVDGVETHTATTEPKQEQFNSTYRVVSVLPIQHKDWLSGKEFKCKVNNKALPAPVERTISKPTGQPREPQVYVLAPHRDELSKNKVSVTCLVKDFYPTDIDIEWKSNGQPEPETKYSTTPAQLDSDGSYFLYSKLTVETNRWQQGTTFTCAVMHEALHNHQTEKSVSKSPGK .
[A] 0.0256

[Q] Also equine IgG4 T286M (antibody, part only; not given: variable domains, not shown: another chain or arm of the molecule) constant: ASTTAPKVFPLASHSAATSGSTVALGCLVSSYFPEPVTVSWNSGALTSGVHTFPSVLQSSGLYSLSSMVTVPASSLKSQTYICNVAHPASSTKVDKKIVIKECNGGCPAECLQVGPSVFIFPPKPKDVLMISRTPTVTCVVVDVGHDFPDVQFNWYVDGVETHMATTEPKQEQFNSTYRVVSVLPIQHKDWLSGKEFKCKVNNKALPAPVERTISKPTGQPREPQVYVLAPHRDELSKNKVSVTCLVKDFYPTDIDIEWKSNGQPEPETKYSTTPAQLDSDGSYFLYSKLTVETNRWQQGTTFTCAVMHEALHNHYTEKSVSKSPGK ?
[A] 0.0203

[Q] Quick one: equine IgG1 M252L (antibody, part only; not given: variable domains, not shown: another chain or arm of the molecule) constant: ASTTAPKVFALAPGCGTTSDSTVALGCLVSGYFPEPVKVSWNSGSLTSGVHTFPSVLQSSGFYSLSSMVTVPASTWTSETYICNVVHAASNFKVDKRIEPIPDNHQKVCDMSKCPKCPAPELLGGPSVFIFPPNPKDTLLITRTPEVTCVVVDVSQENPDVKFNWYMDGVEVRTATTRPKEEQFNSTYRVVSVLRIQHQDWLSGKEFKCKVNNQALPQPIERTITKTKGRSQEPQVYVLAPHPDELSKSKVSVTCLVKDFYPPEINIEWQSNGQPELETKYSTTQAQQDSDGSYFLYSKLSVDRNRWQQGTTFTCGVMHEALHNHYTQKNVSKNPGK
[A] 0.101

[Q] Here is the next binder: equine IgG1 N434W (antibody, part only; not given: Variable domains, not shown: another chain or arm of the molecule) constant: ASTTAPKVFALAPGCGTTSDSTVALGCLVSGYFPEPVKVSWNSGSLTSGVHTFPSVLQSSGFYSLSSMVTVPASTWTSETYICNVVHAASNFKVDKRIEPIPDNHQKVCDMSKCPKCPAPELLGGPSVFIFPPNPKDTLMITRTPEVTCVVVDVSQENPDVKFNWYMDGVEVRTATTRPKEEQFNSTYRVVSVLRIQHQDWLSGKEFKCKVNNQALPQPIERTITKTKGRSQEPQVYVLAPHPDELSKSKVSVTCLVKDFYPPEINIEWQSNGQPELETKYSTTQAQQDSDGSYFLYSKLSVDRNRWQQGTTFTCGVMHEALHWHYTQKNVSKNPGK
[A] 0.00186

[Q] Try equine IgG4 T286D (antibody, part only; not given: variable domains, not shown: another chain or arm of the molecule) constant: ASTTAPKVFPLASHSAATSGSTVALGCLVSSYFPEPVTVSWNSGALTSGVHTFPSVLQSSGLYSLSSMVTVPASSLKSQTYICNVAHPASSTKVDKKIVIKECNGGCPAECLQVGPSVFIFPPKPKDVLMISRTPTVTCVVVDVGHDFPDVQFNWYVDGVETHDATTEPKQEQFNSTYRVVSVLPIQHKDWLSGKEFKCKVNNKALPAPVERTISKPTGQPREPQVYVLAPHRDELSKNKVSVTCLVKDFYPTDIDIEWKSNGQPEPETKYSTTPAQLDSDGSYFLYSKLTVETNRWQQGTTFTCAVMHEALHNHYTEKSVSKSPGK next.
[A] 0.492

[Q] And what about the binder equine IgG4 Y436R (antibody, part only; not given: variable domains, not shown: another chain or arm of the molecule) constant: ASTTAPKVFPLASHSAATSGSTVALGCLVSSYFPEPVTVSWNSGALTSGVHTFPSVLQSSGLYSLSSMVTVPASSLKSQTYICNVAHPASSTKVDKKIVIKECNGGCPAECLQVGPSVFIFPPKPKDVLMISRTPTVTCVVVDVGHDFPDVQFNWYVDGVETHTATTEPKQEQFNSTYRVVSVLPIQHKDWLSGKEFKCKVNNKALPAPVERTISKPTGQPREPQVYVLAPHRDELSKNKVSVTCLVKDFYPTDIDIEWKSNGQPEPETKYSTTPAQLDSDGSYFLYSKLTVETNRWQQGTTFTCAVMHEALHNHRTEKSVSKSPGK ?
[A] 0.0483

[Q] Proceed to equine IgG4 K311R (antibody, part only; not given: variable domains, not shown: another chain or arm of the molecule) constant: ASTTAPKVFPLASHSAATSGSTVALGCLVSSYFPEPVTVSWNSGALTSGVHTFPSVLQSSGLYSLSSMVTVPASSLKSQTYICNVAHPASSTKVDKKIVIKECNGGCPAECLQVGPSVFIFPPKPKDVLMISRTPTVTCVVVDVGHDFPDVQFNWYVDGVETHTATTEPKQEQFNSTYRVVSVLPIQHRDWLSGKEFKCKVNNKALPAPVERTISKPTGQPREPQVYVLAPHRDELSKNKVSVTCLVKDFYPTDIDIEWKSNGQPEPETKYSTTPAQLDSDGSYFLYSKLTVETNRWQQGTTFTCAVMHEALHNHYTEKSVSKSPGK
[A] 0.0161

[Q] Please give the result for equine IgG4 N434I (antibody, part only; not given: variable domains, not shown: another chain or arm of the molecule) constant: ASTTAPKVFPLASHSAATSGSTVALGCLVSSYFPEPVTVSWNSGALTSGVHTFPSVLQSSGLYSLSSMVTVPASSLKSQTYICNVAHPASSTKVDKKIVIKECNGGCPAECLQVGPSVFIFPPKPKDVLMISRTPTVTCVVVDVGHDFPDVQFNWYVDGVETHTATTEPKQEQFNSTYRVVSVLPIQHKDWLSGKEFKCKVNNKALPAPVERTISKPTGQPREPQVYVLAPHRDELSKNKVSVTCLVKDFYPTDIDIEWKSNGQPEPETKYSTTPAQLDSDGSYFLYSKLTVETNRWQQGTTFTCAVMHEALHIHYTEKSVSKSPGK too.
[A] 0.0406
